target: HTRA1, Q92743; test: holdup assay; set-up: key: below the threshold = too weak to quantify, mostly under pKd 3.1 to 4; details: plain residues with an end cap or a label only (N-terminal biotin on a linker: ttds)
Sequence (Q92743 360-477): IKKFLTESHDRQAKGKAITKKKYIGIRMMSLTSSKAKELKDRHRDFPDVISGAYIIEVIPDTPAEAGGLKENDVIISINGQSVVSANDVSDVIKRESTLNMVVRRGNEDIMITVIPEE
Readout label: pKd

Study these solved cases before continuing.
SVWLRKETRV [CYSLTR2, Q9NS75] | below the threshold
ERKLSSESQV [LRP4, O75096] | below the threshold
PKTPPTDTSV [KIR3DL3, Q8N743] | below the threshold
QSARYRDTEL [TJP2, Q9UDY2] | below the threshold

Asked: Any idea what its pKd is? The binder is IYVPEAQTRL [DLGAP4, Q9Y2H0]
Given back: 3.63

Asked: Any idea what its pKd is? The binder is RSLEEEESQL [GRASP, Q7Z6J2]
Given back: 4.33

Asked: Any idea what its pKd is? The binder is TVASEKESVM [SLC1A5, Q15758]
Given back: 3.86

Asked: Any idea what its pKd is? The binder is GQDSREETQL [KCNT2, Q6UVM3]
Given back: below the threshold

Asked: Any idea what its pKd is? The binder is STLTIFETAL [ABCC4, O15439]
Given back: below the threshold
